I'd appreciate it if you could supply Efficacy: percent growth inhibition relative to the untreated control values for the items below.
# System: CC-1 human cervical cell line
# MEASUREMENT NOTES: In vitro cytotoxicity (SRB growth inhibition) assay, CC-1
# Assay type: cell-based
# Set-up: dose or concentration left out as unconfirmed
# RUN CONDITIONS: 72 h
# Description: The SHetA2, SHetA3, SHetA4, SHet50 and 9-cis-RA compounds were evaluated in 4 cervical carcinoma cell lines. […] Bound stain was subsequently solubilized with 10 mM trizma base, and the absorbance was read on an automated plate reader at a wavelength of 560 nm. Growth inhibition was determined by dividing the average Optical Density (OD) of the triplicated treated cultures by the average OD of the triplicate control cultures treated with DMSO solvent only. […]
Give bare numbers, in %.

Worked examples, 3 compounds total:
# COMPOUND, RESULT NUMBER
rows = [
    ("CC1(C)CC(C)(C)c2cc(NC(=S)Nc3ccc([N+](=O)[O-])cc3)ccc2S1", 58),
    ("CCOC(=O)c1ccc(NC(=O)Nc2ccc3c(c2)C(C)(C)CC(C)(C)S3)cc1", 59),
    ("COC(=O)c1ccc(C(=O)Nc2ccc3c(c2)C(C)(C)CC(C)(C)S3)cc1 [SHet50, reference compound]", 15),
]

Now for a further compound.
Need Efficacy: percent growth inhibition relative to the untreated control, item CC1=C(/C=C/C(C)=C\C=C\C(C)=C\C(=O)O)C(C)(C)CCC1 [9-cis-RA, 9-cis-retinoic acid]
28

* * *

I'd appreciate it if you could supply No. of −/− unrescued values for the items below.
# System: Raldh2 −/− embryos
# MEASUREMENT NOTES: Rescue of Raldh2 −/− embryos and teratogenesis
# Type: in vivo, mouse
# RUN CONDITIONS: dose 2.5 mg/kg oral to pregnant mice; E10.25 embryos
One number for each entry.

Worked examples, 3 compounds total:
# COMPOUND, No. of −/− unrescued
measured = [
    ("CC1=C(/C=C/C(C)=C\\C=C\\C(C)=C\\C(=O)O)C(C)(C)CCC1 [9-cis-RA, 9-cis-retinoic acid]", 8),
    ("CC1(C)CC(C)(C)c2cc(NC(=S)Nc3ccc([N+](=O)[O-])cc3)ccc2S1", 1),
    ("CC1(C)CCOc2ccc(C(=O)Oc3ccc(C=NNC(N)=S)cc3)cc21", 4),
]

Now for a further compound.
Need No. of −/− unrescued, item CC1=C(/C=C/C(C)=C/C=C/C(C)=C/C(=O)O)C(C)(C)CCC1 [All-trans-RA]
1

* * *

# Tested on: Raldh2 −/− embryos
# MEASUREMENT NOTES: Rescue of Raldh2 −/− embryos and teratogenesis
# Format: in vivo, mouse
# RUN CONDITIONS: dose 2.5 mg/kg oral to pregnant mice; E10.25 embryos
PROPERTY: Teratogenesis (no. of embryos)
Numbers only.

Worked examples, 4 compounds total:
# COMPOUND, Teratogenesis (no. of embryos)
records = [
    ("CC1(C)CCOc2ccc(C(=O)Oc3ccc(C=NNC(N)=S)cc3)cc21", 0),
    ("CC1=C(/C=C/C(C)=C/C=C/C(C)=C/C(=O)O)C(C)(C)CCC1 [All-trans-RA]", 0),
    ("CC(Cc1ccc(C(=O)O)cc1)c1ccc2c(c1)C(C)(C)CS2 (centres unmarked)", 11),
    ("CC1=C(/C=C/C(C)=C\\C=C\\C(C)=C\\C(=O)O)C(C)(C)CCC1 [9-cis-RA, 9-cis-retinoic acid]", 0),
]

Quick check: Teratogenesis (no. of embryos) on Raldh2 −/− embryos, item "CC1(C)CC(C)(C)c2cc(NC(=S)Nc3ccc([N+](=O)[O-])cc3)ccc2S1" ?
0
